These data points were gathered from paper PMC9289130.

Assay: Stability test of QC samples in rat serum
Assay type: in vitro ADME
Conditions: −80°C for 30 days, low QC (nominal 61.50 / 24.00 / 6.91 / 6.30 ng/ml for compounds 1-4), n = 6
Protocol: Quality control (QC) samples at low, middle and high concentrations (61.50, 384.38, and 4,000.00 ng/ml for andrographolide; 24.00, 150.00, and 1,500.00 ng/ml for dehydroandrographolide; 6.91, 43.20, and 450.00 ng/ml for 1-methoxicabony-β-carboline; 6.30, 39.38, and 400.00 ng/ml for 4-methoxy-5-hydroxy-canthin-6-one) were also prepared by the same procedures. […]
readout.kind: Stability, mean concentration found (ng/mL)
Numbers only here, please. The scale is ng/mL.

Illustrative cases are given below, each with its answer.
compound	Stability, mean concentration found [ng/mL]
COc1c(O)c(=O)n2c3ccccc3c3ccnc1c32 [4-methoxy-5-hydroxy-canthin-6-one]	6.39
COC(=O)c1nccc2c1[nH]c1ccccc12	7.43
C=C1CC[C@@H]2[C@](C)(CO)[C@H](O)CC[C@@]2(C)[C@H]1C/C=C1\C=COC1=O [dehydroandrographolide]	22.46

Now look at this entry.
Query C=C1CC[C@@H]2[C@](C)(CO)[C@H](O)CC[C@@]2(C)[C@@H]1C/C=C1/C(=O)OC[C@H]1O [andrographolide] yields Stability, mean concentration found of 58.97
